Biological target: Histamine H3 receptor (Rattus norvegicus)
Sequence (Q9QYN8 whole entry): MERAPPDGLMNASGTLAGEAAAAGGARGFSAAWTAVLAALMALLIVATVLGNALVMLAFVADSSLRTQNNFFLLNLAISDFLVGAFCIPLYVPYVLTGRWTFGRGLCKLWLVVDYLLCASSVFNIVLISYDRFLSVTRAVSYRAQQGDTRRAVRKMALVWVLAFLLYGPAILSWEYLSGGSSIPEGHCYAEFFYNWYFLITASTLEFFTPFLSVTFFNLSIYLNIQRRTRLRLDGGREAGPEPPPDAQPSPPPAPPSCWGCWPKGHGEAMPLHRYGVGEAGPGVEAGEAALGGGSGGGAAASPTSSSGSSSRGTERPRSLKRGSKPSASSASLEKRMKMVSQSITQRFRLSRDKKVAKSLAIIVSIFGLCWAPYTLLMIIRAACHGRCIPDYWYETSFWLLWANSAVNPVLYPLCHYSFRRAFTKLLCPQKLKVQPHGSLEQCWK
Assay: Displacement of [3H]NAMH from rat histamine H3 receptor transfected in CHO cells
Task for the reader: assign each of the following compounds its reported Ki.
Numbers only, in nM.

Worked cases, Ki given:
> print(dat)
                                   compound  result.value
1  O=C1NN=C(c2ccc(OC3CCN(C4CCCC4)CC3)cc2)C2CC12 (racemic)           8.1
2  CN1N=C(c2ccc(OC3CCN(C4CCC4)CC3)cc2)C2CC2C1=O (racemic)           6.9
3  O=C1C2CC2C(c2ccc(OC3CCN(C4CCC4)CC3)cc2)=NN1c1ccc(F)cc1 (racemic)           6.7
4  CC(C)N1CCC(Oc2ccc(C3=NN(C)C(=O)C4CC34)cc2)CC1 (racemic)            17

For each entry beneath this line, provide reported Ki.
1. O=C1NN=C(c2ccc(OC3CCN(C4CCC4)CC3)cc2)[C@H]2C[C@@H]12
2. O=C1NN=C(c2ccc(OC3CCN(C4CCC4)CC3)cc2)C2CC12 (racemic)
3. O=C1NN=C(c2ccc(OC3CCN(C4CCC4)CC3)cc2)[C@@H]2C[C@H]12
4. CCN1N=C(c2ccc(OC3CCN(C4CCC4)CC3)cc2)C2CC2C1=O (racemic)

Reply:
[7.3, 8.4, 12, 8]
